Here, each record is paired with measured Herbicidal effects Barnyard grass data.
- Tested on: barnyardgrass (Echinochloa oryzicola Vasing.)
- protocol summary: Test Example 1: herbicidal effects, paddy-field pot test
- Format: in vivo
- run conditions: chemical dosage 10 g/a; wettable powder applied 3 days after transplanting; judged after 25 days

- smi: "Oc1cc(Cl)nnc1Oc1cccc(F)c1F"
  Herbicidal effects Barnyard grass: "1 (Growth inhibition rate; 11 to 30%)"
- smi: "CCOc1ccccc1Oc1nnc(Cl)cc1O"
  Herbicidal effects Barnyard grass: "0 (Growth inhibition rate; 0 to 10%)"
- smi: "CC(C)(C)c1cccc(C2CC2)c1Oc1nnc(Cl)cc1O"
  Herbicidal effects Barnyard grass: "3 (Growth inhibition rate; 51 to 70%)"
- smi: "Oc1cc(Cl)nnc1Oc1c(Cl)cccc1C1CC1"
  Herbicidal effects Barnyard grass: "4 (Growth inhibition rate; 71 to 90%)"
- smi: "COc1cccc(C)c1Oc1nnc(Cl)cc1O"
  Herbicidal effects Barnyard grass: "1 (Growth inhibition rate; 11 to 30%)"
- smi: "CC(C)c1cccc(F)c1Oc1nnc(Cl)cc1O"
  Herbicidal effects Barnyard grass: "3 (Growth inhibition rate; 51 to 70%)"
- smi: "Oc1cc(Cl)nnc1Oc1cccc2c1OCC2"
  Herbicidal effects Barnyard grass: "3 (Growth inhibition rate; 51 to 70%)"
- smi: "Oc1cc(Cl)nnc1Oc1ccccc1C1CCC1"
  Herbicidal effects Barnyard grass: "2 (Growth inhibition rate; 31 to 50%)"
- smi: "CCOC(=O)Oc1cc(Cl)nnc1Oc1ccccc1C1CC1"
  Herbicidal effects Barnyard grass: "3 (Growth inhibition rate; 51 to 70%)"
- smi: "CCc1ccc2c(c1Oc1nnc(Cl)cc1O)CCC2"
  Herbicidal effects Barnyard grass: "1 (Growth inhibition rate; 11 to 30%)"
- smi: "Oc1cc(Cl)nnc1Oc1cccc2c1CCO2"
  Herbicidal effects Barnyard grass: "1 (Growth inhibition rate; 11 to 30%)"
- smi: "Cc1cccc(C)c1Oc1nnc(Cl)cc1O"
  Herbicidal effects Barnyard grass: "2 (Growth inhibition rate; 31 to 50%)"
- smi: "Oc1cc(Cl)nnc1Oc1c(C2CC2)ccc2ccoc12"
  Herbicidal effects Barnyard grass: "1 (Growth inhibition rate; 11 to 30%)"
- smi: "Cc1ccc(Br)c(Oc2nnc(Cl)cc2O)c1C"
  Herbicidal effects Barnyard grass: "1 (Growth inhibition rate; 11 to 30%)"
- smi: "Oc1cc(Cl)nnc1Oc1cccc2c1CCCC2"
  Herbicidal effects Barnyard grass: "0 (Growth inhibition rate; 0 to 10%)"
- smi: "Cc1cccc(Oc2nnc(Cl)cc2O)c1C1CC1"
  Herbicidal effects Barnyard grass: "0 (Growth inhibition rate; 0 to 10%)"
- smi: "Oc1cc(Cl)nnc1Oc1c(Br)ccc2c1CCC2"
  Herbicidal effects Barnyard grass: "4 (Growth inhibition rate; 71 to 90%)"
- smi: "Oc1cc(Cl)nnc1Oc1c(C2CC2)cccc1C1CC1"
  Herbicidal effects Barnyard grass: "4 (Growth inhibition rate; 71 to 90%)"
- smi: "Oc1cc(Cl)nnc1Oc1c(Br)cccc1Br"
  Herbicidal effects Barnyard grass: "3 (Growth inhibition rate; 51 to 70%)"
- smi: "Oc1cc(Cl)nnc1Oc1c(Br)cccc1C1CC1"
  Herbicidal effects Barnyard grass: "3 (Growth inhibition rate; 51 to 70%)"
- smi: "Cc1ccccc1Oc1nnc(Cl)cc1OS(C)(=O)=O"
  Herbicidal effects Barnyard grass: "2 (Growth inhibition rate; 31 to 50%)"
- smi: "Oc1cc(Cl)nnc1Oc1cccc2c1CCC2"
  Herbicidal effects Barnyard grass: "3 (Growth inhibition rate; 51 to 70%)"

* * *

- System: barnyardgrass (Echinochloa oryzicola Vasing.)
- protocol summary: Test Example 1: herbicidal effects, paddy-field pot test
- Assay type: in vivo
- run conditions: chemical dosage 10 g/a; wettable powder applied 3 days after transplanting; judged after 25 days
Here, each record is paired with measured Herbicidal effects Barnyard grass data.

- compound: "Oc1cc(Cl)nnc1Oc1ccccc1I [Example 52]"
  Herbicidal effects Barnyard grass: "3 (Growth inhibition rate; 51 to 70%)"
- compound: "O=C(Oc1cc(Cl)nnc1Oc1ccccc1C1CC1)C1CC1 [Example 327]"
  Herbicidal effects Barnyard grass: "4 (Growth inhibition rate; 71 to 90%)"
- compound: "O=S(=O)(Oc1cc(Cl)nnc1Oc1ccccc1C1CC1)c1ccccc1 [Example 365]"
  Herbicidal effects Barnyard grass: "2 (Growth inhibition rate; 31 to 50%)"
- compound: "CCc1cccc(C2CC2)c1Oc1nnc(Cl)cc1O [Example 269]"
  Herbicidal effects Barnyard grass: "2 (Growth inhibition rate; 31 to 50%)"
- compound: "COc1ccc(C)cc1Oc1nnc(Cl)cc1O [Example 16]"
  Herbicidal effects Barnyard grass: "0 (Growth inhibition rate; 0 to 10%)"
- compound: "Oc1cc(Cl)nnc1Oc1cccc2c1CC1CC21 (stereo not shown) [Example 15]"
  Herbicidal effects Barnyard grass: "1 (Growth inhibition rate; 11 to 30%)"
- compound: "CC1CC1c1ccccc1Oc1nnc(Cl)cc1O (stereo not shown) [Example 72]"
  Herbicidal effects Barnyard grass: "3 (Growth inhibition rate; 51 to 70%)"

* * *

- System: transplanted paddy-field rice
- protocol summary: Test Example 1: crop injury against transplanted paddy-field rice
- Type: in vivo
- run conditions: chemical dosage 20 g/a; wettable powder applied 3 days after transplanting; judged after 25 days

- compound: "Oc1cc(Cl)nnc1Oc1cccc2c1OCO2"
  Crop injury against transplanted rice: "1 (Growth inhibition rate; 11 to 30%)"
- compound: "O=C(Oc1cc(Cl)nnc1Oc1ccccc1C1CC1)c1ccccc1"
  Crop injury against transplanted rice: "0 (Growth inhibition rate; 0 to 10%)"
- compound: "CC1CCc2cccc(Oc3nnc(Cl)cc3O)c21 (stereo not shown)"
  Crop injury against transplanted rice: "0 (Growth inhibition rate; 0 to 10%)"
- compound: "COc1cccc(C2CC2)c1Oc1nnc(Cl)cc1O"
  Crop injury against transplanted rice: "0 (Growth inhibition rate; 0 to 10%)"
- compound: "CCOC(=O)Oc1cc(Cl)nnc1Oc1ccccc1C1CC1"
  Crop injury against transplanted rice: "0 (Growth inhibition rate; 0 to 10%)"
- compound: "CC(C)c1cccc(F)c1Oc1nnc(Cl)cc1O"
  Crop injury against transplanted rice: "0 (Growth inhibition rate; 0 to 10%)"
- compound: "Oc1cc(Cl)nnc1Oc1c(F)cccc1Cl"
  Crop injury against transplanted rice: "0 (Growth inhibition rate; 0 to 10%)"
- compound: "COc1cccc(C)c1Oc1nnc(Cl)cc1O"
  Crop injury against transplanted rice: "0 (Growth inhibition rate; 0 to 10%)"
- compound: "Cc1cccc(I)c1Oc1nnc(Cl)cc1O"
  Crop injury against transplanted rice: "3 (Growth inhibition rate; 51 to 70%)"
- compound: "O=S(=O)(Oc1cc(Cl)nnc1Oc1ccccc1C1CC1)c1ccccc1"
  Crop injury against transplanted rice: "0 (Growth inhibition rate; 0 to 10%)"

* * *

Here, each record is paired with measured melting point data.
Where a name gives a salt, the structure may show the parent alone.

- compound: "Cc1ccc(Oc2nnc(Cl)cc2O)cc1"
  melting point: "261 to 263 °C"
- compound: "COC(=O)c1ccc(OC)c(Oc2nnc(Cl)cc2O)c1"
  melting point: "115 to 123 °C"
- compound: "N#Cc1cccc(Oc2nnc(Cl)cc2O)c1"
  melting point: "226 to 229 °C"
- compound: "Cc1cccc(Oc2nnc(Cl)cc2O)c1Br"
  melting point: "140 to 141 °C"
- compound: "Cc1cc(Cl)ccc1Oc1nnc(Cl)cc1O"
  melting point: "235 to 235.5 °C"
- compound: "Cc1ccccc1Oc1n[n+]([O-])c(Cl)cc1O"
  melting point: "194 to 196 °C"
- compound: "CCCCc1ccccc1Oc1nnc(Cl)cc1O"
  melting point: "149.5 to 150 °C"
- compound: "CCC(=O)Oc1cc(Cl)nnc1Oc1c(C)cccc1C1CC1"
  melting point: "75 to 77 °C"
- compound: "Cc1ccc(S(=O)(=O)Oc2c(Cl)cnnc2Oc2ccccc2C)cc1 (as salt: benzene sulfonate)"
  melting point: "140 to 143 °C"
- compound: "C=CCc1cccc(CC=C)c1Oc1nnc(Cl)cc1O"
  melting point: "131 to 135 °C"
- compound: "Cc1coc2cccc(Oc3nnc(Cl)cc3O)c12"
  melting point: "218 to 225 °C"
- compound: "Cc1cccc(C2CC2)c1Oc1nnc(Cl)cc1OC(=O)c1cccn1C"
  melting point: "143 to 144 °C"
- compound: "Cc1ccccc1Oc1nnc(-c2ccccc2)cc1O"
  melting point: "236 to 237 °C"
- compound: "Cc1cccc(C2CC2)c1Oc1nnc(Cl)cc1OC(=O)N1CCCC1"
  melting point: "115 to 118 °C"
- compound: "Cc1cccc(Br)c1Oc1nnc(Cl)cc1O"
  melting point: "242 to 243 °C"
- compound: "Oc1cc(Cl)nnc1Oc1ccccc1C1CC1(Br)Br (stereo not drawn)"
  melting point: "208 to 210 °C (dec.)"
- compound: "COc1cscc1C(=O)Oc1cc(Cl)nnc1Oc1c(C)cccc1C1CC1"
  melting point: "146 to 149 °C"
- compound: "Cc1cccc(Oc2nnc(Cl)cc2O)c1C"
  melting point: "240 to 241 °C"
- compound: "Oc1cc(Cl)nnc1Oc1c(Cl)cccc1I"
  melting point: "262 to 264 °C"
- compound: "Cc1ccc(C(C)C)c(Oc2nnc(Cl)cc2O)c1"
  melting point: "193 to 195 °C"
- compound: "CC(C)c1cccc([N+](=O)[O-])c1Oc1nnc(Cl)cc1O"
  melting point: "205 to 209 °C"
- compound: "CC(C)c1cc(Br)ccc1Oc1nnc(Cl)cc1O"
  melting point: "215 to 225 °C"
- compound: "Cc1ccc(S(=O)(=O)Oc2cc(Cl)nnc2Oc2c(C)cccc2C2CC2)cc1"
  melting point: "85 to 87 °C"
- compound: "Oc1cc(Cl)nnc1Oc1ccccc1C1CC1(F)F (stereo not drawn)"
  melting point: "215 to 216 °C"
- compound: "Oc1cc(Cl)nnc1Oc1cc(C(F)(F)F)cc(C(F)(F)F)c1"
  melting point: "237 to 242 °C"
- compound: "CCC(C)c1ccccc1Oc1nnc(Cl)cc1O (stereo not drawn)"
  melting point: "158 to 159 °C"
- compound: "Cc1c(F)cccc1Oc1nnc(Cl)cc1O"
  melting point: "242 to 244 °C"
- compound: "COc1ccccc1Oc1nnc(Cl)cc1OS(=O)(=O)c1ccc(C)cc1"
  melting point: "153 to 157 °C"
- compound: "Cc1ccc2c(c1Oc1nnc(Cl)cc1O)OCC2"
  melting point: "217 to 219 °C"
- compound: "O=C(O)C1(c2ccccc2Oc2nnc(Cl)cc2O)CCC1"
  melting point: "173 to 175 °C"
- compound: "Oc1cc(Cl)nnc1Oc1ccccc1C1(c2ccccc2)CC1"
  melting point: "172 to 173 °C"
- compound: "Oc1cc(Cl)nnc1Oc1ccccc1C1(C2CC2)CC1"
  melting point: "180 to 182 °C"
- compound: "Cc1cccc(C2CC2)c1Oc1nnc(Cl)cc1OC(=O)C(C)C"
  melting point: "38 to 39 °C"
- compound: "Cc1cc(C)c(F)c(Oc2nnc(Cl)cc2O)c1C"
  melting point: "258 to 260 °C"
- compound: "Oc1cc(Cl)nnc1Oc1ccc(C2CC2)cc1"
  melting point: "221 to 227 °C"
- compound: "CC(=O)c1ccc(Oc2nnc(Cl)cc2O)c(C)c1"
  melting point: "182 to 184 °C"
- compound: "CC1(C)Cc2c(Oc3nnc(Cl)cc3O)cccc21"
  melting point: "197 to 199 °C"
- compound: "COc1cccc(Br)c1Oc1nnc(Cl)cc1O"
  melting point: "220 to 221 °C"
- compound: "Cc1ccc(N(C)C)cc1Oc1nnc(Cl)cc1O"
  melting point: "181 to 182 °C"
